test: Evaluation of Metabolic Stability in Human Liver Microsomes
Format: in vitro ADME
conditionContext: HLM, run B, relative to clemizole
readoutType: percentage increase in half-life in going from clemizole to the test compound, run B

1. [2H]C([2H])(c1nc2ccccc2n1C([2H])([2H])c1ccc(Cl)cc1)N1CCCC1 : (+6%)

---

Give half-life for every item shown.
test: Evaluation of Metabolic Stability in Human Liver Microsomes
Format: in vitro ADME
conditionContext: human, microsomes, pH 7.4, HLM 0.5 mg/mL, 2 mM NADPH, 37° C., run B; read-out: t½ (min) B
Please respond with the number in min and leave the unit unwritten.

INPUT: Any idea what half-life was measured for [2H]C([2H])(c1nc2ccccc2n1C([2H])([2H])c1ccc(Cl)cc1)N1C([2H])([2H])C([2H])([2H])C([2H])([2H])C1([2H])[2H] [Compound 110] ?
OUTPUT: 18.2

INPUT: Also need [2H]C([2H])(c1nc2ccccc2n1C([2H])([2H])c1ccc(Cl)cc1)N1CCCC1 [Compound 105] , thanks.
OUTPUT: 14.9

INPUT: Record: [2H]C1([2H])N(Cc2nc3ccccc3n2Cc2ccc(Cl)cc2)C([2H])([2H])C([2H])([2H])C1([2H])[2H] [Compound 102]
OUTPUT: 19.4

INPUT: Also, [2H]C([2H])(c1nc2ccccc2n1Cc1ccc(Cl)cc1)N1CCCC1 [Compound 101] please.
OUTPUT: 15.2

INPUT: Similarly, [2H]C([2H])(c1ccc(Cl)cc1)n1c(CN2CCCC2)nc2ccccc21 [Compound 100] ?
OUTPUT: 14.1

INPUT: [2H]C([2H])(c1ccc(Cl)cc1)n1c(CN2C([2H])([2H])C([2H])([2H])C([2H])([2H])C2([2H])[2H])nc2ccccc21 [Compound 106] , same question.
OUTPUT: 17.2

INPUT: How about this compound: Clc1ccc(Cn2c(CN3CCCC3)nc3ccccc32)cc1 [clemizole, reference compound]
OUTPUT: 14

INPUT: Next record, please: [2H]C1([2H])CCC([2H])([2H])N1Cc1nc2ccccc2n1Cc1ccc(Cl)cc1 [Compound 104]
OUTPUT: 16.3

---

test: Evaluation of Metabolic Stability in Human Liver Microsomes
Format: in vitro ADME
conditionContext: human, microsomes, pH 7.4, HLM 0.5 mg/mL, 2 mM NADPH, 37° C., run C; read-out: t½ (min) C
Give half-life for every item shown.
Note: unit min is implicit; provide only the numeric part.

INPUT: Look up half-life for this molecule: [2H]C1([2H])N(Cc2nc3ccccc3n2Cc2ccc(Cl)cc2)C([2H])([2H])C([2H])([2H])C1([2H])[2H]
OUTPUT: 17.6

INPUT: Now this one: [2H]C([2H])(c1nc2ccccc2n1C([2H])([2H])c1ccc(Cl)cc1)N1CCCC1
OUTPUT: 14

INPUT: Can you check [2H]C([2H])(c1ccc(Cl)cc1)n1c(CN2C([2H])([2H])C([2H])([2H])C([2H])([2H])C2([2H])[2H])nc2ccccc21 next?
OUTPUT: 16.2

INPUT: Then this molecule: [2H]C1([2H])CCC([2H])([2H])N1Cc1nc2ccccc2n1Cc1ccc(Cl)cc1
OUTPUT: 15.5

INPUT: # iterate: [2H]C([2H])(c1nc2ccccc2n1Cc1ccc(Cl)cc1)N1CCCC1
OUTPUT: 14.4

INPUT: Moving on to [2H]C([2H])(c1nc2ccccc2n1C([2H])([2H])c1ccc(Cl)cc1)N1C([2H])([2H])C([2H])([2H])C([2H])([2H])C1([2H])[2H]
OUTPUT: 17.8

INPUT: Next up: [2H]C([2H])(c1ccc(Cl)cc1)n1c(CN2CCCC2)nc2ccccc21
OUTPUT: 13.8

INPUT: Try the molecule Clc1ccc(Cn2c(CN3CCCC3)nc3ccccc32)cc1 [clemizole, reference compound]
OUTPUT: 13.3

---

Exercise: state measured half-life for each of the compounds provided.
test: Evaluation of Metabolic Stability in Human Liver Microsomes
Format: in vitro ADME
conditionContext: human, microsomes, pH 7.4, HLM 0.5 mg/mL, 2 mM NADPH, 37° C., run A; read-out: t½ (min) A
Report as a plain number; the unit min is understood.

INPUT: Which half-life reading was recorded for the compound [2H]C([2H])(c1nc2ccccc2n1C([2H])([2H])c1ccc(Cl)cc1)N1C([2H])([2H])C([2H])([2H])C([2H])([2H])C1([2H])[2H] ?
OUTPUT: 15.8

INPUT: Lookup [2H]C([2H])(c1ccc(Cl)cc1)n1c(CN2C([2H])([2H])C([2H])([2H])C([2H])([2H])C2([2H])[2H])nc2ccccc21
OUTPUT: 16.2

INPUT: Subsequent entry: [2H]C([2H])(c1ccc(Cl)cc1)n1c(CN2CCCC2)nc2ccccc21
OUTPUT: 13.7

---

test: Evaluation of Metabolic Stability in Human Liver Microsomes
Format: in vitro ADME
conditionContext: HLM, run B, relative to clemizole
readoutType: percentage increase in half-life in going from clemizole to the test compound, run B

1) [2H]C([2H])(c1nc2ccccc2n1Cc1ccc(Cl)cc1)N1CCCC1 [Compound 101] : (+8%)

---

Exercise: for every item that follows, state its recorded half-life.
test: Evaluation of Metabolic Stability in Human Liver Microsomes
Assay type: in vitro ADME
conditionContext: human, microsomes, pH 7.4, HLM 0.5 mg/mL, 2 mM NADPH, 37° C., run A; read-out: t½ (min) A
Only the number, expressed in min, is required.

INPUT: Fill in the blank: the reported half-life of [2H]C([2H])(c1nc2ccccc2n1C([2H])([2H])c1ccc(Cl)cc1)N1CCCC1 is ____.
OUTPUT: 13.6

INPUT: Try [2H]C1([2H])CCC([2H])([2H])N1Cc1nc2ccccc2n1Cc1ccc(Cl)cc1 next.
OUTPUT: 15.5

INPUT: Could you do the same for Clc1ccc(Cn2c(CN3CCCC3)nc3ccccc32)cc1 [clemizole, reference compound] , please?
OUTPUT: 13.5

INPUT: Follow-up item: [2H]C([2H])(c1nc2ccccc2n1Cc1ccc(Cl)cc1)N1CCCC1
OUTPUT: 15.9

INPUT: Please do the same for [2H]C1([2H])N(Cc2nc3ccccc3n2Cc2ccc(Cl)cc2)C([2H])([2H])C([2H])([2H])C1([2H])[2H] as well.
OUTPUT: 18.9

---

test: Evaluation of Metabolic Stability in Human Liver Microsomes
Format: in vitro ADME
conditionContext: HLM, run C, relative to clemizole
readoutType: percentage increase in half-life in going from clemizole to the test compound, run C

1. [2H]C([2H])(c1nc2ccccc2n1C([2H])([2H])c1ccc(Cl)cc1)N1CCCC1 : (+6%)
2. [2H]C([2H])(c1nc2ccccc2n1Cc1ccc(Cl)cc1)N1CCCC1 : (+9%)
3. [2H]C([2H])(c1ccc(Cl)cc1)n1c(CN2CCCC2)nc2ccccc21 : (+4%)

---

Give measured half-life for each item. Keep answers brief.
test: Evaluation of Metabolic Stability in Human Liver Microsomes
Format: in vitro ADME
conditionContext: human, microsomes, pH 7.4, HLM 0.5 mg/mL, 2 mM NADPH, 37° C., run D; read-out: t½ (min) D
Procedure: Human liver microsomes (20 mg/mL) are obtained from Xenotech, LLC (Lenexa, KS). β-nicotinamide adenine dinucleotide phosphate, reduced form (NADPH), magnesium chloride (MgCl2), and dimethyl sulfoxide (DMSO) are purchased from Sigma-Aldrich. […] Data analysis: The in vitro half-lives (t1/2s) for test compounds are calculated from the slopes of the linear regression of % parent remaining (In) vs incubation time relationship using the following formula: […]
A number alone suffices; assume min.

INPUT: Dear colleague, I am looking for the recorded half-life of the following compound: [2H]C([2H])(c1nc2ccccc2n1C([2H])([2H])c1ccc(Cl)cc1)N1C([2H])([2H])C([2H])([2H])C([2H])([2H])C1([2H])[2H]
OUTPUT: 17

INPUT: Input [2H]C([2H])(c1nc2ccccc2n1Cc1ccc(Cl)cc1)N1CCCC1
OUTPUT: 14

INPUT: [2H]C([2H])(c1ccc(Cl)cc1)n1c(CN2C([2H])([2H])C([2H])([2H])C([2H])([2H])C2([2H])[2H])nc2ccccc21 ?
OUTPUT: 16.7

INPUT: Now consider [2H]C1([2H])N(Cc2nc3ccccc3n2Cc2ccc(Cl)cc2)C([2H])([2H])C([2H])([2H])C1([2H])[2H] and answer again.
OUTPUT: 16.7

INPUT: Entry Clc1ccc(Cn2c(CN3CCCC3)nc3ccccc32)cc1 [clemizole, reference compound] please
OUTPUT: 12.3

INPUT: Could you do the same for [2H]C([2H])(c1nc2ccccc2n1C([2H])([2H])c1ccc(Cl)cc1)N1CCCC1 , please?
OUTPUT: 13.9

INPUT: // repeat for [2H]C1([2H])CCC([2H])([2H])N1Cc1nc2ccccc2n1Cc1ccc(Cl)cc1 and report
OUTPUT: 15.6

INPUT: Can you handle [2H]C([2H])(c1ccc(Cl)cc1)n1c(CN2CCCC2)nc2ccccc21 next?
OUTPUT: 13.8
